Source: the supplement of paper PMC10567573

experimental details: protein stability index of a GFP-peptide fusion (GPS, HEK-293T) (PSI 1-6); higher = more stable;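 further: 24-mer peptide tiles fused after GFP, lentivirally expressed, FACS-sorted into six equal bins by GFP/DsRed ratio, decoded by Illumina sequencing, PSI is the read-weighted mean bin number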
applied conditions: treatment: DMSO; c terminus: a fixed tail appended
Lab note: anything with protein stability index at or over 3 counts as Satisfied; the rest go in Not satisfied.

Query: Given GASLYAISNVCEEYIVKKLSRQEF [SLC35F2] , state whether its protein stability index is at least 3.
Result: Not satisfied

Query: Repeat with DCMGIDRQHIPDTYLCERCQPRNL [KMT2E]
Result: Satisfied

Query: Repeat with MGVVSLVFLIIYYLDPSVLSGVSC [ARL6IP1]
Result: Satisfied

Query: Repeat with EEGDEDDWASNKVMFKIGDLGHVT [WEE1]
Result: Satisfied

Query: Repeat with RTHGDMHSLVRSRHRIPEPEAAVL [TRIB3]
Result: Satisfied

Query: Repeat with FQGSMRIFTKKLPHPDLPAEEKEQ [USP39]
Result: Not satisfied

Query: Repeat with CEYNFVSPSKSFWTRITCAEEGWS [CFHR2]
Result: Not satisfied

Query: Repeat with LLEESDGEGEPGQGEGPEAGDAEV [NOP53]
Result: Satisfied

Query: Repeat with DTTEEVDHKPKLCRLAKGENGYGF [PDZK1]
Result: Satisfied

Query: Repeat with NHGLVSVGESVEEAFYYIHNLVVA [ADD1]
Result: Not satisfied

Query: Repeat with LEGLNLSILKAMGKTKKDYQEASN [NECAB1]
Result: Satisfied

Query: Repeat with SRTVRQFQFTDWPEQGVPKSGEGF [PTPRD]
Result: Satisfied

Query: Repeat with TNTRRGSRAPCKVQGLEGIKMAMV [NEK8]
Result: Not satisfied

Query: Repeat with LLPTKSLVALKCTCCYFKFIIEYY [FBXO34]
Result: Not satisfied

Query: Repeat with LEVSQLEGSLQQPKAQSAMSPYLV [SMG5]
Result: Satisfied

Query: Repeat with CGDYFPDGITNGASWYSLSKGMQD [CPN1]
Result: Not satisfied

Query: Repeat with CIRLWKYALDMQQSNLEPLSPMTA [FEM1A]
Result: Not satisfied

Query: Repeat with QAWFGFAGTPGYLSPEVLRKDPYG [CAMK2D]
Result: Not satisfied

Query: Repeat with ENSVTHHEVKCQGKPLAGIYRKRE [KMT5A]
Result: Satisfied

Query: Repeat with EEAEAGEEAVPEEEGPTVVLNPHP [CHGA]
Result: Satisfied

Query: Repeat with YSTRYGSPKRQLQFYRNLGKSGLR [KCNAB2]
Result: Not satisfied

Query: Repeat with IVCAQSSQSLWNRLSVLLNLLPAA [SMG5]
Result: Not satisfied

Query: Repeat with LTEHQRIHTGIKPHQCSECGRAFS [ZNF649]
Result: Satisfied

Query: Repeat with KTMQSEETRVWHRRDGKWQNVHFH [CAMK2D]
Result: Not satisfied

Query: Repeat with NCIHRDIKPENILITKQGIIKICD [CDKL4]
Result: Not satisfied

Query: Repeat with IVSQKQIADRAAHDESPGNNVVDI [RAB11B]
Result: Satisfied

Query: Repeat with GVCQSMCHDKYTKIFNDFKDRMKS [ZMYND11]
Result: Satisfied

Query: Repeat with PAGKTPVPAGEEEGELGEYRQKLL [VPS39]
Result: Satisfied

Query: Repeat with DTLGLGKTRRKTSARDASPTPSTD [NCK2]
Result: Satisfied

Query: Repeat with NQLILTASADRTVIVWDGDTTRQV [WDR41]
Result: Not satisfied

Query: Repeat with EHVLMFAKLALYPCASLLAFASTC [TMEM175]
Result: Satisfied

Query: Repeat with ERREALCRQLSESESSLEMDDERY [CCDC6]
Result: Satisfied

Query: Repeat with RSQQQEPLLCPSYQSYFKTIEELQ [KRT33B]
Result: Satisfied

Query: Repeat with GCCVFAFLVGLLFVQRSGNYFVTM [SLC6A17]
Result: Satisfied

Query: Repeat with QECPPDGRSFREEQCVSFNSHVYN [ADAMTSL2]
Result: Satisfied
